- experimental target: T1, FAM-tagged two-repeat S2-phosphorylated CTD peptide
- T1 chain: YSPTSPSYSPTSPS
- method summary: fluorescence anisotropy (FA)
- measurement context: chain shown with the change; read at the highest titration point, Seb1-CID 500 µM; parent: est. 110; read off a plot
parameter measured: response
Give the figure by itself; no unit, no explanation.

Worked examples, 4 binders total:
[
  {
    "binder": "Seb1-CID(1-152), Q9UTE3 S22D; K25E; K124E (protein) MSGIAEFDGILDSLEHSKTGIDGSEILKLTNLSMENVSENAQFVASVYKYAKRAPVTHKLGALYILDSIVRSFQDGAKKNNESFENPVDASFSGGWCKAAEITDSLVADAIQHAPSAHLPKILELCDIWEKASTFPPEKLESLRSKLKDAMA",
    "measured": 22
  },
  {
    "binder": "Seb1-CID(1-152), Q9UTE3 Y64K (protein) MSGIAEFDGILDSLEHSKTGISGSKILKLTNLSMENVSENAQFVASVYKYAKRAPVTHKLGALKILDSIVRSFQDGAKKNNESFENPVDASFSGGWCKAAEITDSLVADAIQHAPSAHLPKILKLCDIWEKASTFPPEKLESLRSKLKDAMA",
    "measured": 65
  },
  {
    "binder": "Seb1-CID(1-152), Q9UTE3 K124E (protein) MSGIAEFDGILDSLEHSKTGISGSKILKLTNLSMENVSENAQFVASVYKYAKRAPVTHKLGALYILDSIVRSFQDGAKKNNESFENPVDASFSGGWCKAAEITDSLVADAIQHAPSAHLPKILELCDIWEKASTFPPEKLESLRSKLKDAMA",
    "measured": 59
  },
  {
    "binder": "Seb1-CID(1-152), Q9UTE3 S22D; K25E (protein) MSGIAEFDGILDSLEHSKTGIDGSEILKLTNLSMENVSENAQFVASVYKYAKRAPVTHKLGALYILDSIVRSFQDGAKKNNESFENPVDASFSGGWCKAAEITDSLVADAIQHAPSAHLPKILKLCDIWEKASTFPPEKLESLRSKLKDAMA",
    "measured": 72
  }
]

Attention now turns to another entry.
Lookup: Name the recorded response of the item Seb1-CID(1-152), Q9UTE3 K121E (protein) MSGIAEFDGILDSLEHSKTGISGSKILKLTNLSMENVSENAQFVASVYKYAKRAPVTHKLGALYILDSIVRSFQDGAKKNNESFENPVDASFSGGWCKAAEITDSLVADAIQHAPSAHLPEILKLCDIWEKASTFPPEKLESLRSKLKDAMA in your answer.
Found: 47

All values here come from paper PMC5382271.
